src = PubChem BioAssay

Assay: VP16 transactivation reporter inhibitors, counter-screen for LRH-1 inverse agonist project, cell-based, luminescence, high throughput (AID 651615)
Details: Gal4-VP16 luciferase reporter cells, at 3.6 µM, active compounds read high
For each entry below, report its inhibition value.
One number for each entry, in %.

For orientation, consider the following solved cases.
[
  {
    "compound": "O=C(CNc1cccc2ccccc12)N/N=C/c1ccc([N+](=O)[O-])o1",
    "measured parameter": "inhibition",
    "endpoint unit": "%",
    "numeric readout": 39.9
  },
  {
    "compound": "C=CC(=O)N1C/C(=C/c2ccccc2)C(=O)/C(=C\\c2ccccc2)C1",
    "measured parameter": "inhibition",
    "endpoint unit": "%",
    "numeric readout": 62.2
  },
  {
    "compound": "O=C(Nc1nc(-c2cccs2)cs1)c1ccc([N+](=O)[O-])o1",
    "measured parameter": "inhibition",
    "endpoint unit": "%",
    "numeric readout": -34.9
  },
  {
    "compound": "CCOc1ccc(NC(=O)CSc2nncc(=O)n2N)cc1",
    "measured parameter": "inhibition",
    "endpoint unit": "%",
    "numeric readout": -9.32
  },
  {
    "compound": "O=C(NCc1cccnc1)/C(=C/c1ccc(-c2ccc(Cl)cc2)o1)S(=O)(=O)c1ccccc1",
    "measured parameter": "inhibition",
    "endpoint unit": "%",
    "numeric readout": 77.2
  },
  {
    "compound": "CC1(C)CC(N2CCN(c3ccccc3)CC2)=CC(=[N+]2CCCC2)C1",
    "measured parameter": "inhibition",
    "endpoint unit": "%",
    "numeric readout": 63.7
  }
]

Kindly give each listed record's inhibition.
1. COc1cc(N)c(Cl)cc1C(=O)OCC(=O)N1c2ccccc2NC(=O)C1(C)C
2. C(=NN1CCCCCC1)c1ccc2ccccc2n1
3. O=C(COC(=O)c1ccc[nH]c1=O)Nc1ccc(N2CCCCC2)cc1
4. O=C(NNc1ccccc1)C(=O)NNS(=O)(=O)c1ccc([N+](=O)[O-])cc1
5. COc1cc(C2c3cc4c(cc3C(OC3OC5COC(c6cccs6)OC5C(O)C3O)C3COC(=O)C23)OCO4)cc(OC)c1O (configuration not stated)

Result:
-12.3
70.8
6.65
20.1
-36.1

---

Give inhibition for every item shown.
Target: Steroidogenic factor 1 (Homo sapiens)
Assay: SF1 (NR5A1) inverse agonists, counter-screen for LRH-1 inverse agonist project, cell-based, luminescence, high throughput (AID 651614);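 also: cells cotransfected with StAR promoter reporter and SF1 expression vector; 0% = vehicle on cells with receptor and 100% = vehicle on cells lacking receptor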
Settings: cell-based SF1 luciferase reporter, at 3.6 µM, active compounds read high
One number for each entry, in %.

[
  {
    "compound": "O=C(CSc1nnnn1C1CCCC1)Nc1ccc2c(c1)OCCO2",
    "numeric readout": 42.3
  },
  {
    "compound": "Cn1c(CN2CCN(c3cccc(Cl)c3)CC2)nc2ccccc21",
    "numeric readout": 36.9
  },
  {
    "compound": "Cc1nnsc1S(=O)c1ccc(Br)cc1 (configuration not stated)",
    "numeric readout": 44.9
  }
]

Your task in this section: give inhibition for each listed record.
1. C=CCn1c(C)cc(C(=O)CN2C(=O)c3ccccc3S2(=O)=O)c1C
2. CCC(=O)Nc1cccc(C(=O)/C=C/c2cc(Br)ccc2OC)c1
3. CCOc1ccc(NC(=O)CSc2nc3cccnc3n2CCOC)cc1
4. Cc1onc(-c2ccccc2)c1C(=O)NC(=S)NNC(=O)c1ccccc1O
5. Cn1cnnc1SCC(=O)Nc1ccc(N2CCOCC2)cc1
6. O=[N+]([O-])c1cccc(-c2ccc(/C=N/NC(=S)NCc3ccco3)o2)c1
7. CC[C@@H](C(=O)[C@@H](C)[C@@H](O)[C@H](C)[C@@H]1O[C@@H]([C@@H](CC)C(=O)O)CC[C@@H]1C)[C@H]1O[C@]2(C=C[C@@H](O)[C@]3(CC[C@@](C)([C@H]4CC[C@](O)(CC)[C@H](C)O4)O3)O2)[C@H](C)C[C@@H]1C

Result:
[90.7, 94.1, 62.1, 83.4, 34.5, 51.2, 92.7]

List reported inhibition for each of these compounds:
1. C=CS(=O)(=O)N(Cc1ccc(Cl)c(Cl)c1)C[C@@H](O)CO
2. N=C1C=CC(=C(c2ccc(N)cc2)c2ccc(N)cc2)C=C1

Result:
58
85.2
